Target: cIAP-1 BIR-3 (Homo sapiens)
Construct: "cIAP-1 BIR-3"
Sequence (Q13490 266-343 limits assumed): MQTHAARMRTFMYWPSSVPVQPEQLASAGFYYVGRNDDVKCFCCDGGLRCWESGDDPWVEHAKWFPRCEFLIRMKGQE
Test: Fluorescence polarization binding to cIAP-1 BIR-3 (competition with AbuRPF-K(5-Fam)-NH2)
Conditions: cells marked (cIAP-1): cIAP-1 BIR-3; reported as range class
Description: The binding affinities of the compounds are reported as a Kd value. […] Following incubation, the polarization values (mP) were measured on a Victor2V (available from PerkinElmer Life Sciences) using a 485 nm excitation filter and a 520 nm emission filter. […]
pKd: −log10 of the molar value.

{"QUERY_SMILES": "CCN[C@@H](C)C(=O)N[C@H](C(=O)N1CC[C@H](O)[C@H]1Cc1c[nH]c2ncccc12)C(C)C", "TGT": "cIAP-1 BIR-3 (Homo sapiens)", "pKd": "> 7.00"}
{"QUERY_SMILES": "CCN[C@@H](C)C(=O)N[C@H](C(=O)N1CC[C@@H](O)[C@H]1Cc1c[nH]c2ccccc12)[C@@H](C)O", "TGT": "cIAP-1 BIR-3 (Homo sapiens)", "pKd": "> 7.00"}
{"QUERY_SMILES": "CC[C@H](NC)C(=O)N[C@H](C(=O)N1CC[C@@H](O)[C@H]1Cc1c[nH]c2ccccc12)C1CC1", "TGT": "cIAP-1 BIR-3 (Homo sapiens)", "pKd": "> 7.00"}
{"QUERY_SMILES": "CC[C@H](NC)C(=O)N[C@H](C(=O)N1CC[C@@H](O)[C@H]1Cc1c(-c2ccc(F)cc2)[nH]c2ccccc12)[C@@H](C)OC", "TGT": "cIAP-1 BIR-3 (Homo sapiens)", "pKd": "> 7.00"}
{"QUERY_SMILES": "CN[C@@H](C)C(=O)N[C@H](C(=O)N1CC[C@H](O)[C@H]1Cc1c(Cl)[nH]c2cc(F)ccc12)C1CCCCC1", "TGT": "cIAP-1 BIR-3 (Homo sapiens)", "pKd": "> 7.00"}
{"QUERY_SMILES": "CCN[C@@H](C)C(=O)N[C@H](C(=O)N1CC[C@H](O)[C@H]1Cc1c[nH]c2ncccc12)C(C)(C)C", "TGT": "cIAP-1 BIR-3 (Homo sapiens)", "pKd": "> 7.00"}
{"QUERY_SMILES": "CCN[C@@H](C)C(=O)N[C@H](C(=O)N1CC[C@@H](O)[C@H]1Cc1c(-c2ccc(F)cc2)[nH]c2ccccc12)[C@@H](C)O", "TGT": "cIAP-1 BIR-3 (Homo sapiens)", "pKd": "> 7.00"}
{"QUERY_SMILES": "CN[C@H](C(=O)N[C@H](C(=O)N1CC[C@@H](O)[C@H]1Cc1c[nH]c2ccccc12)C1CC1)C1CC1", "TGT": "cIAP-1 BIR-3 (Homo sapiens)", "pKd": "< 7.00"}
{"QUERY_SMILES": "CCN[C@@H](C)C(=O)N[C@H](C(=O)N1CC[C@@H](O)[C@H]1Cc1c(-c2ccc(F)cc2)[nH]c2ccccc12)C1CCCCC1", "TGT": "cIAP-1 BIR-3 (Homo sapiens)", "pKd": "> 7.00"}
{"QUERY_SMILES": "CCN[C@@H](C)C(=O)N[C@H](C(=O)N1CC[C@@H](O)[C@H]1Cc1c[nH]c2ccccc12)C1CC1", "TGT": "cIAP-1 BIR-3 (Homo sapiens)", "pKd": "< 7.00"}
{"QUERY_SMILES": "CCc1ccc2c(c1)[C@H](C[C@@H]1C[C@H](O)CN1C(=O)[C@@H](NC(=O)[C@H](C)NC)[C@@H](C)OC)CN2C(C)=O", "TGT": "cIAP-1 BIR-3 (Homo sapiens)", "pKd": "> 7.00"}
{"QUERY_SMILES": "CCN[C@@H](C)C(=O)N[C@H](C(=O)N1CC[C@H](OC)[C@H]1Cc1c(Cl)[nH]c2cc(F)ccc12)C(C)C", "TGT": "cIAP-1 BIR-3 (Homo sapiens)", "pKd": "< 7.00"}
{"QUERY_SMILES": "CN[C@H](C(=O)N[C@H](C(=O)N1CC[C@@H](O)[C@H]1Cc1c[nH]c2ccccc12)C(C)(C)C)C1CC1", "TGT": "cIAP-1 BIR-3 (Homo sapiens)", "pKd": "> 7.00"}
{"QUERY_SMILES": "CCN[C@@H](C)C(=O)N[C@H](C(=O)N1CC[C@@H](O)[C@H]1Cc1c[nH]c2ccccc12)C1CCCCC1", "TGT": "cIAP-1 BIR-3 (Homo sapiens)", "pKd": "> 7.00"}
